target: Transitional endoplasmic reticulum ATPase (Homo sapiens); assay: p97-dependent UbG76V-GFP degradation inhibitors in cells, SAR follow-up, imaging, HeLa, round 3 (AID 504649)
The source made the active and inactive calls.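 How the source made its calls: active means half-maximal inhibitory concentration IC50 of 10 µM or lower; inactive means the rest.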
Your answer must be one of the following: Yes (active), No (inactive)

| COMPOUND | LABEL |
| --- | --- |
| COc1cccc2c(NCc3cncs3)nc(N3CCOc4ccccc43)nc12 | No |
| COc1cccc2c(NCc3ccccc3)nc(NC(C)c3ccccc3)nc12 (stereo unspecified) | Yes |
| COc1cccc2c(NCc3ccc(O)cc3)nc(N3CCOc4ccccc43)nc12 | Yes |
| COc1cccc2c(NCc3ccccc3)nc(Nc3nc4ccccc4s3)nc12 | No |
| COc1cccc2c(NCc3ccccc3)nc(Nc3nc4ccccc4n3C)nc12 | Yes |
| Cc1nc(N2CCOc3ccccc32)nc(NCc2ccccc2)c1C | No |
| COc1cccc2c(NCc3ccccn3)nc(N3CCNc4ccccc43)nc12 | No |
| COc1cccc2c(NCc3ccccc3)nc(Nc3cccc(F)c3)nc12 | Yes |

What was the test verdict on CN(c1ccccc1)c1nc(NCc2ccccc2)c2ccccc2n1 ?
Yes

* * *

target: Transitional endoplasmic reticulum ATPase (Homo sapiens) (UniProt P55072); experiment: p97-dependent UbG76V-GFP degradation inhibitors in cells, SAR follow-up, imaging, HeLa, round 3 (AID 504649)
Sequence (P55072 whole entry, looked up): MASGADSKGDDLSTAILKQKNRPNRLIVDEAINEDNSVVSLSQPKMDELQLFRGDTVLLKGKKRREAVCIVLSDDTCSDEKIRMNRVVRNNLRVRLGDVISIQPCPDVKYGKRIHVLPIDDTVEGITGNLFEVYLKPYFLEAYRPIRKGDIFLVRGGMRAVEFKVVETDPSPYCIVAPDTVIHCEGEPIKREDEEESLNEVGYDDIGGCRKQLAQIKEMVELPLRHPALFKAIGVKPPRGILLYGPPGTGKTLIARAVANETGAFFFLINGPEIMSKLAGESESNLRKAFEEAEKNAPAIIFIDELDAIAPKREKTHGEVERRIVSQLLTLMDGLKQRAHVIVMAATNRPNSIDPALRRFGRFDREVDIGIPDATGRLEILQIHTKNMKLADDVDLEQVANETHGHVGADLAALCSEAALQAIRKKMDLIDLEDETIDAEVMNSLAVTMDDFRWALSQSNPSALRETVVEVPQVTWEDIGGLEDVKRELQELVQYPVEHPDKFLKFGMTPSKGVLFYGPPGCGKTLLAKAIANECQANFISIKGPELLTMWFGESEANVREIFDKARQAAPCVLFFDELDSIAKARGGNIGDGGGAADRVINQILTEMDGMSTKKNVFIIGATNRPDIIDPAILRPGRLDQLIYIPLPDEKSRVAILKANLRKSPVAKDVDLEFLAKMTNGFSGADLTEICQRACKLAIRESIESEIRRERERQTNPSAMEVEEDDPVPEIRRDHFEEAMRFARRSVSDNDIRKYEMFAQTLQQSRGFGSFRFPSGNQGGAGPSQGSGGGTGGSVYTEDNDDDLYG
Active and inactive are the calls of the source.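 How the source made its calls: active means half-maximal inhibitory concentration IC50 of 10 µM or lower; inactive means the rest.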
Output constraint: value belongs to active, inactive

| SMILES STRING | LABEL |
| --- | --- |
| COc1cccc2c(NCc3cccs3)nc(N3CCOc4ccccc43)nc12 | active |
| Nc1nc2ccccc2n1-c1nc2c(c(NCc3ccccc3)n1)CCCC2 | active |

Dear colleague, could you share the recorded outcome for COc1cccc2c(NCc3ccccc3)nc(-n3c(N)nc4cc(Cl)c(Cl)cc43)nc12 when you have a moment?
inactive

What do we get for COc1cccc2c(NCc3ccccc3)nc(NCc3cccs3)nc12 ?
active

Same question for c1ccc(CNc2nc(N3CCOc4ccccc43)nc3ccsc23)cc1 please.
active

Try this molecule too: CCN(CC)CCOc1cccc2c(NCc3ccccc3)nc(N3CCOc4ccccc43)nc12
active

Also COc1cccc2c(NCC3CCCCC3)nc(N3CCOc4ccccc43)nc12 , if possible.
active

Can you check Oc1cccc2c(NCc3ccccc3)nc(N3CCOc4ccccc43)nc12 next?
active

* * *

target: Transitional endoplasmic reticulum ATPase (Homo sapiens); experiment: p97-dependent UbG76V-GFP degradation inhibitors in cells, SAR follow-up, imaging, HeLa, round 3 (AID 504649)
Kindly supply the reported IC50 values for the records listed here.

| SMILES STRING | STUDY SYSTEM | IC50 |
| --- | --- | --- |
| Nc1nc2ccccc2n1-c1nc(NCc2ccccc2)c2ccccc2n1 | Transitional endoplasmic reticulum ATPase (Homo sapiens) | 2.9 µM |

Fill in IC50 for each of the 5 compounds listed.
1. N#CCOc1cccc2c(NCc3ccccc3)nc(N3CCOc4ccccc43)nc12
2. COc1cccc2c(NCc3ccc(F)cc3)nc(N3CCOc4ccccc43)nc12
3. COc1cccc2c(NCc3ccccc3)nc(N3CCN(C(C)=O)c4ccccc43)nc12
4. COc1cccc2c(NCc3ccccc3)nc(N3CCN(C)c4ccccc43)nc12
5. COc1cccc2c(NCc3ccccc3)nc(-n3c(N)nc4c(C)cccc43)nc12

1. 7.7 µM
2. 3.7 µM
3. 8 µM
4. 7.8 µM
5. 2.6 µM

Can you give me IC50 for all of these, one by one?
1. c1ccc(CNc2nc(N3CCOc4ccccc43)nc3c2CCCC3)cc1
2. COc1cccc2c(NCc3ccccc3N(C)C)nc(N3CCOc4ccccc43)nc12

1. 3.5 µM
2. 4.5 µM

// lookup IC50 for COc1cccc2c(NCc3ccccc3)nc(Nc3ccccc3O)nc12
2.8 µM

Hey, just so you know, these numbers are from PubChem BioAssay AID504649.
